Assayed system: E. coli UDP-N-acetylglucosamine enolpyruvoyl transferase, MurA (Escherichia coli)
Sequence (P0A749 whole entry): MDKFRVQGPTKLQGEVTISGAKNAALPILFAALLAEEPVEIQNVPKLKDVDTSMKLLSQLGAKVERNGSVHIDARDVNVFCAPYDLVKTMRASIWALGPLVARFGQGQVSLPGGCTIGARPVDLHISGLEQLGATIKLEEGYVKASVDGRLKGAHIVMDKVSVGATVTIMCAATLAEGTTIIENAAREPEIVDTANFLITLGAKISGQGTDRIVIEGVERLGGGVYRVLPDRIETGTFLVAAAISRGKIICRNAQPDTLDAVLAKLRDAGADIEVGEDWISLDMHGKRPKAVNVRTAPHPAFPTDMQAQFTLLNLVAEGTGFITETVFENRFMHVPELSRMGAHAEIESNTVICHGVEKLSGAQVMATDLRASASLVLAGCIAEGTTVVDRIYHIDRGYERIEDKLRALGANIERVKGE
Under this convention, TRUE denotes IC50 strictly below 9 µM and FALSE denotes IC50 at or above 9 µM.

INSERT INTO assay_data (given_smiles, category_label) VALUES
  ('Cc1ccc(/C=C2\OC(=O)C(c3ccc(-c4ccccc4)cc3)=C2O)s1', 'FALSE'),
  ('CCCc1ccc(-c2ccc(C3=C(O)/C(=C/c4cc(F)cc(C(F)(F)F)c4)OC3=O)cc2)cc1', 'FALSE'),
  ('CC(C)(C)c1ccc(-c2ccc(C3=C(O)/C(=C/c4cc(C(F)(F)F)ccc4F)OC3=O)cc2)cc1', 'TRUE'),
  ('CCOc1ccc(-c2ccc(C3=C(O)/C(=C/c4cc(C(F)(F)F)ccc4F)OC3=O)cc2)cc1', 'FALSE'),
  ('O=C1O/C(=C\c2ccc(-c3ccccc3)cc2)C(O)=C1c1ccc(Cl)cc1Cl', 'FALSE'),
  ('O=C1O/C(=C\c2ccc(-c3ccccc3C(F)(F)F)cc2)C(O)=C1c1ccccc1C(F)(F)F', 'FALSE'),
  ('O=C1O/C(=C\c2ccc3ccccc3c2)C(O)=C1c1ccc(Cl)cc1', 'FALSE'),
  ('O=C1O/C(=C\c2cc(F)cc(C(F)(F)F)c2)C(O)=C1c1ccc(-c2ccccc2)c(F)c1', 'FALSE'),
  ('O=C1O/C(=C\c2ccc3ccccc3c2)C(O)=C1c1ccc(-c2ccccc2)cc1', 'FALSE'),
  ('O=C1O/C(=C\c2cccnc2)C(O)=C1c1ccc(-c2ccccc2)cc1', 'FALSE'),
  ('CC(C)(C)c1ccc(-c2ccc(C3=C(O)/C(=C/c4cccc(C(F)(F)F)c4Cl)OC3=O)cc2)cc1', 'TRUE');
